Biological target: SopB (Salmonella typhimurium)
Sequence (O30916 whole entry): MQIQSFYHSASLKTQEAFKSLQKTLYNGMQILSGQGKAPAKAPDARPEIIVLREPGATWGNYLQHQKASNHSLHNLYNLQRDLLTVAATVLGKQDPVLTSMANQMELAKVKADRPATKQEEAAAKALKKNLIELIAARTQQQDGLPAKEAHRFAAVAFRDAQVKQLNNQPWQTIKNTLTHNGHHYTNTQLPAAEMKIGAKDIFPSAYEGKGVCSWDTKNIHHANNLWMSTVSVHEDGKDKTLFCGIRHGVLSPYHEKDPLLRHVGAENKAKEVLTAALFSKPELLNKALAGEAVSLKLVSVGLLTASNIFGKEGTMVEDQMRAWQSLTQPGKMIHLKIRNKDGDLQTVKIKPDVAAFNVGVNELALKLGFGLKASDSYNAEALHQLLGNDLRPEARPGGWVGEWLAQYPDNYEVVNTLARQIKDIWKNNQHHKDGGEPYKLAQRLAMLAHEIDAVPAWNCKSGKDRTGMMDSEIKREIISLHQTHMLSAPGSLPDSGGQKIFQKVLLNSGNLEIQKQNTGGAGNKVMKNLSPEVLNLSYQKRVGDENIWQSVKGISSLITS
Experiment: biochemical
Format: biochemical
Details: +IV compound; read-out: IC50 SopB
property_name: IC50

| smiles_text | reading |
| --- | --- |
| O=C([O-])c1ccccn1.O=C([O-])c1ccccn1.[O]=[V+2] | 125 nM |

Query molecule follows.
// sample `O=C([O-])c1ncccc1O.O=C([O-])c1ncccc1O.[O]=[V+2]` , its IC50 was 588 nM

###

Biological target: MTM (Homo sapiens)
Sequence (Q13496 whole entry): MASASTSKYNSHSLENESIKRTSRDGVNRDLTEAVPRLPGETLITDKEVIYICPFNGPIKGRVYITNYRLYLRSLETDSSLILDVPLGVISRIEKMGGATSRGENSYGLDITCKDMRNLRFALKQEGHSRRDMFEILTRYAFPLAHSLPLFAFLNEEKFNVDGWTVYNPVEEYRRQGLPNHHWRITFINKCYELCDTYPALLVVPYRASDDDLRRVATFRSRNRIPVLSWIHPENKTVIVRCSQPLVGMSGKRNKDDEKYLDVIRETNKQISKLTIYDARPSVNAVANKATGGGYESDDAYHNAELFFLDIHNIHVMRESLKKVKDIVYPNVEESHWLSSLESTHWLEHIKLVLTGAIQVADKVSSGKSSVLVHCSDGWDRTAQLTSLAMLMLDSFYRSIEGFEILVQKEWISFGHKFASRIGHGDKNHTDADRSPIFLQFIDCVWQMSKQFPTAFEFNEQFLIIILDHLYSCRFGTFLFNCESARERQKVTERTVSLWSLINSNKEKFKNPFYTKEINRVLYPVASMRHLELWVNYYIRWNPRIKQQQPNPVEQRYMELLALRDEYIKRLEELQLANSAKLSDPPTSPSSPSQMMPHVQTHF
Assay: MTM IC50 (inositol phosphatase inhibition)
Assay type: biochemical
Settings: Compound(+V)
The following molecules are listed with their measured pIC50 values.
Kindly note that pIC50 refers to -log10 of the concentration in mol/L and answer with the value alone.

Worked cases, pIC50 given:
| molecule | reading |
| --- | --- |
| O=C([O-])c1ccc(O)cn1.[K+].[K+].[O-2].[O-][O-].[O-][O-].[V+5] [bpV(HOpic)] | 6.46 |
| O=C([O-])c1nccc2ccccc12.[K+].[K+].[O-][O-].[O-][O-].[O]=[V+3] [pV(isoqu)] | 6.06 |

Now consider a different molecule.
# pIC50 of O.O.O.OO.OO.[K+].[OH-].[V].c1cnc2c(c1)ccc1cccnc12 [bpV(phen)] = 6.39

###

The following are reported IC50 results, target or system PTEN (Homo sapiens).
Give a bare numeral; the unit nM is implied.

| smiles_text | quantity_unit | reading |
| --- | --- | --- |
| O.O.O.OO.OO.[K+].[OH-].[V].c1cnc2c(c1)ccc1cccnc12 | nM | 38 |

Note: attention shifts to another entry.
Observed IC50 on PTEN (Homo sapiens), entry `O=C([O-])c1ccc(O)cn1.[K+].[K+].[O-2].[O-][O-].[O-][O-].[V+5]` , equals 14
